Just for reference, paper PMC5700166 is where these values come from.

Target: GST-Aq-NF-kB (Amphimedon queenslandica, UniProt A9Y5G7 2-389)
Sequence: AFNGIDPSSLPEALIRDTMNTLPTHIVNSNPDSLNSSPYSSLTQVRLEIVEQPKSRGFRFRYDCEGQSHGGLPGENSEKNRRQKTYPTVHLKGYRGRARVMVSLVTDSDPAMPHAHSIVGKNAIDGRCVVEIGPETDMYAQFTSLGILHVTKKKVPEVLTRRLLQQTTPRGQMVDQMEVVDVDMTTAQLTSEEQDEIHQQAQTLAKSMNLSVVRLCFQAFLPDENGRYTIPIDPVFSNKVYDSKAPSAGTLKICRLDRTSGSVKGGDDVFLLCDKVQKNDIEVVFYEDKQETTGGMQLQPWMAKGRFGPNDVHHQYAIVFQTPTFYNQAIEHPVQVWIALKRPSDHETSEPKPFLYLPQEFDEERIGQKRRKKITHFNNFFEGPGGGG
Assay: protein-binding microarray (PBM); PBM: ~300 nM protein, 6 mM HEPES pH 7.8, 80 mM KCl, 0.5 mM EDTA, 0.5 mM EGTA, 6% glycerol, 35 ng/ul poly-dIdC, 1% milk, 1 h, room temperature; high values mean tight binding
Settings: dsDNA, one strand shown
REPORTED_METRIC: binding signal (z-score)
The figure you give is taken to be in z-score; do not add the unit.

# input sequence: CCGATTAACATCAGGCAACCCCATGATGTTAATCGGGTCTTGATTCGCTTGACGCTGCTG ; wanted: its binding signal 1.4

* * *

Overview of recorded binding signal for various sequences
Target: GST-Dm-Relish (Drosophila melanogaster, UniProt Q94527 99-473)
Sequence: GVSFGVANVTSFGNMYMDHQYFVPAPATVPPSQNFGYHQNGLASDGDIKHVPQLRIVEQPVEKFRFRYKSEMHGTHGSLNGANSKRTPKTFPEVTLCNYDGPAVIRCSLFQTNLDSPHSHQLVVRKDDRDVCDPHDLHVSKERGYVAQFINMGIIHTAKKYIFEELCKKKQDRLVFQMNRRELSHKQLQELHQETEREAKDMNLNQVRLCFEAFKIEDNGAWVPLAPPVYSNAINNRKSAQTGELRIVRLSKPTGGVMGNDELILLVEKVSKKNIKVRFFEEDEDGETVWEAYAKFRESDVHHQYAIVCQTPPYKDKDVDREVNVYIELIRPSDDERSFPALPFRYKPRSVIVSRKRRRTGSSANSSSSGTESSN
Assay: protein-binding microarray (PBM); PBM: ~300 nM protein, 6 mM HEPES pH 7.8, 80 mM KCl, 0.5 mM EDTA, 0.5 mM EGTA, 6% glycerol, 35 ng/ul poly-dIdC, 1% milk, 1 h, room temperature; high values mean tight binding
Conditions: dsDNA, one strand shown
State just the number; it will be interpreted in z-score.

Sample answers from the record:
{"SEQUENCE_RECORD": "CCGATTAACATCAAGGGTTTCCCTGATGTTAATCGGGTCTTGATTCGCTTGACGCTGCTG", "REPORTED_METRIC": "binding signal", "TEST_RESULT": 7.83}
{"SEQUENCE_RECORD": "CCGATTAACATCAAAATACCCCTTGATGTTAATCGGGTCTTGATTCGCTTGACGCTGCTG", "REPORTED_METRIC": "binding signal", "TEST_RESULT": 5.65}
{"SEQUENCE_RECORD": "CCGATTAACATCAGGCATTTCCCTGATGTTAATCGGGTCTTGATTCGCTTGACGCTGCTG", "REPORTED_METRIC": "binding signal", "TEST_RESULT": 1.97}
{"SEQUENCE_RECORD": "CCGATTAACATCACGGAGTTCCCTGATGTTAATCGGGTCTTGATTCGCTTGACGCTGCTG", "REPORTED_METRIC": "binding signal", "TEST_RESULT": 5}
{"SEQUENCE_RECORD": "CCGATTAACATCAGGTTTCCCCATGATGTTAATCGGGTCTTGATTCGCTTGACGCTGCTG", "REPORTED_METRIC": "binding signal", "TEST_RESULT": 4.69}

Please report the recorded binding signal for CCGATTAACATCAGGGGTTACACTGATGTTAATCGGGTCTTGATTCGCTTGACGCTGCTG . 2

Next up: CCGATTAACATCAACAAACCCCCTGATGTTAATCGGGTCTTGATTCGCTTGACGCTGCTG 7.26

Moving on to the next sequence: CCGATTAACATCACGGGTATTCCTGATGTTAATCGGGTCTTGATTCGCTTGACGCTGCTG 6.78

Now give it for CCGATTAACATCAAGGGGGGGGCTGATGTTAATCGGGTCTTGATTCGCTTGACGCTGCTG too. 5.21

* * *

Target: GST-Aq-NF-kB (Amphimedon queenslandica, UniProt A9Y5G7 2-389)
Sequence: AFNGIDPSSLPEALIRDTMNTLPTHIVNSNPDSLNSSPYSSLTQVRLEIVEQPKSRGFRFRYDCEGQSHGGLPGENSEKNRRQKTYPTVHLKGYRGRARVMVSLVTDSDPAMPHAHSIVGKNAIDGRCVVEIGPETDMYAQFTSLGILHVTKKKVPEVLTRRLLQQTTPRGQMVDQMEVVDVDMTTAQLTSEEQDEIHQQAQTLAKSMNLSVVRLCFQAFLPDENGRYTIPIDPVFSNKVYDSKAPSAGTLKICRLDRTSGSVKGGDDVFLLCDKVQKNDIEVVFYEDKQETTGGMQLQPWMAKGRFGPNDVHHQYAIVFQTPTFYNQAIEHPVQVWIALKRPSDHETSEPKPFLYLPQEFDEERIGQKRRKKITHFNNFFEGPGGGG
Assay: protein-binding microarray (PBM); PBM: ~300 nM protein, 6 mM HEPES pH 7.8, 80 mM KCl, 0.5 mM EDTA, 0.5 mM EGTA, 6% glycerol, 35 ng/ul poly-dIdC, 1% milk, 1 h, room temperature; high values mean tight binding
Details: dsDNA, one strand shown
Lab note: cut-off is 6 z-score. Strictly less in binding signal is label 1. Exactly 6 z-score or more is label 0.

Example results:
{"SEQUENCE_RECORD": "CCGATTAACATCAAAAACCCCCTTGATGTTAATCGGGTCTTGATTCGCTTGACGCTGCTG", "CLASSIFICATION": "label 0"}
{"SEQUENCE_RECORD": "CCGATTAACATCAGGGGTATACCTGATGTTAATCGGGTCTTGATTCGCTTGACGCTGCTG", "CLASSIFICATION": "label 1"}

A record lists CCGATTAACATCAAGAAATTCCGTGATGTTAATCGGGTCTTGATTCGCTTGACGCTGCTG . Is its binding signal below 6 z-score? label 1

Ok, now CCGATTAACATCAGGGGTACACATGATGTTAATCGGGTCTTGATTCGCTTGACGCTGCTG label 1

Now the sequence CCGATTAACATCAGACTTTCCCCTGATGTTAATCGGGTCTTGATTCGCTTGACGCTGCTG label 0

Would you kindly repeat that for CCGATTAACATCAGAGAATTCCCTGATGTTAATCGGGTCTTGATTCGCTTGACGCTGCTG ? label 0

What do we get for CCGATTAACATCAAAACAATCCCTGATGTTAATCGGGTCTTGATTCGCTTGACGCTGCTG ? label 1

* * *

Molecular target: GST-Co-NF-kB (Capsaspora owczarzaki, UniProt F1ARL5 200-546)
Sequence: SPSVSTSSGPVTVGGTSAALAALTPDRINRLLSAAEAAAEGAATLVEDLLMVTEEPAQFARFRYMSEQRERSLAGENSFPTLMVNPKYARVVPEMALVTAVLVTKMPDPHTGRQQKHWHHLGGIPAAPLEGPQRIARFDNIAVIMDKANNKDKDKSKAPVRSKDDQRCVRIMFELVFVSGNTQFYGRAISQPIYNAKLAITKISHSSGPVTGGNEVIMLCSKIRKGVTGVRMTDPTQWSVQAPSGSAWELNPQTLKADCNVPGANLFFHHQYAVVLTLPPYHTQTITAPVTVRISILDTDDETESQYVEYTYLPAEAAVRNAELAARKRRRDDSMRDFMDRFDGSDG
Assay: protein-binding microarray (PBM); PBM: ~300 nM protein, 6 mM HEPES pH 7.8, 80 mM KCl, 0.5 mM EDTA, 0.5 mM EGTA, 6% glycerol, 35 ng/ul poly-dIdC, 1% milk, 1 h, room temperature; Ap Aiptasia and Nv Nematostella (sea anemones) / Co Capsaspora / Aq Amphimedon (sponge) / Dm Drosophila / Hu human; RHD is the Rel homology domain; high values mean tight binding
Conditions: dsDNA, one strand shown
Each entry gets rule not met if its binding signal stays under 5 z-score, and rule met if its binding signal is 5 z-score or above.

Solved entries:
{"SEQUENCE_RECORD": "CCGATTAACATCAAAATTCCCGATGATGTTAATCGGGTCTTGATTCGCTTGACGCTGCTG", "TARGET_SYSTEM": "GST-Co-NF-kB (Capsaspora owczarzaki, UniProt F1ARL5 200-546)", "CLASSIFICATION": "rule not met"}
{"SEQUENCE_RECORD": "CCGATTAACATCATACCCCCCCATGATGTTAATCGGGTCTTGATTCGCTTGACGCTGCTG", "TARGET_SYSTEM": "GST-Co-NF-kB (Capsaspora owczarzaki, UniProt F1ARL5 200-546)", "CLASSIFICATION": "rule met"}
{"SEQUENCE_RECORD": "CCGATTAACATCAGACTTTCCCATGATGTTAATCGGGTCTTGATTCGCTTGACGCTGCTG", "TARGET_SYSTEM": "GST-Co-NF-kB (Capsaspora owczarzaki, UniProt F1ARL5 200-546)", "CLASSIFICATION": "rule not met"}
{"SEQUENCE_RECORD": "CCGATTAACATCATAAGGGGTGTTGATGTTAATCGGGTCTTGATTCGCTTGACGCTGCTG", "TARGET_SYSTEM": "GST-Co-NF-kB (Capsaspora owczarzaki, UniProt F1ARL5 200-546)", "CLASSIFICATION": "rule not met"}

Now for a further sequence.
State whether the measured binding signal reaches 5 z-score, counting equality as reaching it, for CCGATTAACATCAGGGAATTATATGATGTTAATCGGGTCTTGATTCGCTTGACGCTGCTG rule not met
